The following molecules are listed with their measured LD50 values.
- measurement.protocol: Acute toxicity in ip dosed CF1 mouse
- assay.setup: in vivo
Could you give the number and then its unit, please?

These recorded examples may help you get a feel for the data.
CN1CC2CC(C1)CN(C(c1ccccc1)c1ccccc1)C2.Cl :: 225 µmol/kg
CC(C)C1C2CC(CN(C)C2)CN1C.Cl (centres undefined) :: 279 µmol/kg
CN1CC2CC(C1)CN(Cc1ccccc1)C2.CS(=O)(=O)O :: 189 µmol/kg

Please turn your attention to the following entry.
Query block: # get_value(readout='LD50', item= CCCCN1CC2CC(C1)CN(Cc1ccccc1)C2.Cl )
Result block: 198 µmol/kg
